test system: GNF156R (PfCARL L830V, S1076I and M81I, parent Dd2); test: Cross-resistance EC50 assay, GNF156R; assay type: cell-based; conditions: Plasmodium falciparum, SYBR green 72 hour assay, asynchronized parasites, 96-well or 1536-well format
Threshold 1 µM. EC50 below it: 1 (yes). EC50 at it or above: 0 (no).

Decide: EC50 of CC(C)c1cccc(C(NC(=O)C2Cc3ccccc3CN2C(=O)c2cccc(N3CCOCC3)c2)C2CCCC2)c1 (centres unmarked) [MMV028038] strictly below 1 µM?
1 (yes)

Same question for CCN(CC)S(=O)(=O)c1ccc(-c2csc(Nc3ccc(C)c(C)c3)n2)cc1 [MMV009108] please.
0 (no)

Same question for CCOc1cc2c(cc1OCC)C(c1cc(Cl)ccc1O)NCC2 (centres unmarked) [MMV000478] please.
1 (yes)

Same question for O=C(Nc1ccsc1C(=O)NC1CCCCC1)c1ccc(F)cc1 [MMV665939] please.
0 (no)

Same question for CN(C)CCCN(C)C(=O)C1Cc2cc(-c3ccccc3)ccc2N1S(=O)(=O)c1ccccc1 (centres unmarked) [MMV028895] please.
0 (no)

Same question for COc1cc(-c2nc(-c3ccccc3)c(-c3ccccc3)[nH]2)cc(OC)c1O [MMV020750] please.
1 (yes)

Same question for CN(C)CCCNCc1ccc(-c2ccc(Cl)c(Cl)c2)o1 [MMV673964] please.
0 (no)

Same question for O=C(Nc1ccccc1O)c1ccc(Oc2cccc(C(=O)Nc3ccccc3O)c2)cc1 [MMV665888] please.
1 (yes)

Same question for O=C(Nc1ccc(Cl)c(Cl)c1)Nc1ccc(Cl)c(Cl)c1 [MMV665852] please.
1 (yes)

Same question for Cc1ccc(S(=O)(=O)n2cc(-c3ccnc(N)c3)c3cc(Br)cnc32)cc1 [MMV024114] please.
0 (no)

Same question for COc1ccc(C(=O)C2CC2c2ccc(Cl)cc2)cc1 (centres unmarked) [MMV665924] please.
0 (no)
